System: MCF10A
Test: perturbation Mahalanobis distance of morphological profile vs DMSO controls (Mahalanobis distance (SD units)); higher = stronger morphological change, active = 7 or more
Details: screen batch: Batch1_Mahalanobis_Distance; 72 h
EXPERIMENTAL ENDPOINT: perturbation Mahalanobis distance
Give bare numbers.

Please review the following examples before continuing.
{"COMPOUND": "NC12CC3CC(CC(C3)C1)C2 [Amantadine] (19.85 µM)", "SYSTEM NAME": "MCF10A", "perturbation Mahalanobis distance": 2.66}
{"COMPOUND": "C[N+](C)(C)CCOC(N)=O [Carbachol] (37 µM)", "SYSTEM NAME": "MCF10A", "perturbation Mahalanobis distance": 2.88}
{"COMPOUND": "CC1=NS(=O)(=O)c2cc(Cl)ccc2N1 [Diazoxide] (86.7 µM)", "SYSTEM NAME": "MCF10A", "perturbation Mahalanobis distance": 2.69}
{"COMPOUND": "Nc1c2c(nc3ccccc13)CCCC2 [Tacrine] (0.25 µM)", "SYSTEM NAME": "MCF10A", "perturbation Mahalanobis distance": 2.25}

Now for the compound whose perturbation Mahalanobis distance we want.
IN: Return reported perturbation Mahalanobis distance; argument: COc1cc(N)c(Cl)cc1C(=O)NC1CCN(CCCOc2ccc(F)cc2)CC1OC (stereo not given) [Cisapride] (0.85 µM)
OUT: 3.31

# credit: the supplement of paper PMC6853941
